Recorded measurements of protein stability index, one per entry
B1: TOR1AIP2 (parent)
chain: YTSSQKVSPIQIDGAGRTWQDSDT

- Variants of: B1
- Protocol Summary: protein stability index of a GFP-peptide fusion (GPS, HEK-293T) (PSI 1-6); higher = more stable;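 note: lentivirally expressed fusions sorted by FACS into six bins by GFP to DsRed ratio, PSI derived from sequencing read proportions per bin multiplied by bin number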
- Condition Description: c terminus: a fixed tail appended
Property Name: protein stability index

- Mutant Code: "T18E"
  Property Name: "protein stability index"
  Endpoint Result: 3.83
- Mutant Code: "S4I"
  Property Name: "protein stability index"
  Endpoint Result: 2.92
- Mutant Code: "R17Q"
  Property Name: "protein stability index"
  Endpoint Result: 3.79
- Mutant Code: "Q5C"
  Property Name: "protein stability index"
  Endpoint Result: 2.13
- Mutant Code: "G16C"
  Property Name: "protein stability index"
  Endpoint Result: 2.99
- Mutant Code: "Q5E"
  Property Name: "protein stability index"
  Endpoint Result: 4.2
- Mutant Code: "Q5H"
  Property Name: "protein stability index"
  Endpoint Result: 2.87
- Mutant Code: "D13H"
  Property Name: "protein stability index"
  Endpoint Result: 2.64
- Mutant Code: "D13A"
  Property Name: "protein stability index"
  Endpoint Result: 3.2
- Mutant Code: "D21E"
  Property Name: "protein stability index"
  Endpoint Result: 3.27
- Mutant Code: "D23F"
  Property Name: "protein stability index"
  Endpoint Result: 2.04
- Mutant Code: "R17L"
  Property Name: "protein stability index"
  Endpoint Result: 3.21
- Mutant Code: "G16A"
  Property Name: "protein stability index"
  Endpoint Result: 3.07
- Mutant Code: "T24K"
  Property Name: "protein stability index"
  Endpoint Result: 3.29
- Mutant Code: "S3M"
  Property Name: "protein stability index"
  Endpoint Result: 3.01
- Mutant Code: "Q20K"
  Property Name: "protein stability index"
  Endpoint Result: 3.16
- Mutant Code: "T2N"
  Property Name: "protein stability index"
  Endpoint Result: 4.41
- Mutant Code: "T2Q"
  Property Name: "protein stability index"
  Endpoint Result: 3.17
- Mutant Code: "D13V"
  Property Name: "protein stability index"
  Endpoint Result: 2.39
- Mutant Code: "Q20D"
  Property Name: "protein stability index"
  Endpoint Result: 3.79
- Mutant Code: "Y1V"
  Property Name: "protein stability index"
  Endpoint Result: 4.26
- Mutant Code: "S4A"
  Property Name: "protein stability index"
  Endpoint Result: 3.06
- Mutant Code: "W19K"
  Property Name: "protein stability index"
  Endpoint Result: 4.56
- Mutant Code: "I12G"
  Property Name: "protein stability index"
  Endpoint Result: 4.59
- Mutant Code: "G14D"
  Property Name: "protein stability index"
  Endpoint Result: 3.46
- Mutant Code: "Y1W"
  Property Name: "protein stability index"
  Endpoint Result: 3.6
- Mutant Code: "W19T"
  Property Name: "protein stability index"
  Endpoint Result: 4.35
- Mutant Code: "V7P"
  Property Name: "protein stability index"
  Endpoint Result: 3.6
- Mutant Code: "I10D"
  Property Name: "protein stability index"
  Endpoint Result: 4.32
- Mutant Code: "T18K"
  Property Name: "protein stability index"
  Endpoint Result: 3.33
- Mutant Code: "W19Q"
  Property Name: "protein stability index"
  Endpoint Result: 4.57
- Mutant Code: "R17V"
  Property Name: "protein stability index"
  Endpoint Result: 3.64
- Mutant Code: "Q5D"
  Property Name: "protein stability index"
  Endpoint Result: 4.04
- Mutant Code: "Y1P"
  Property Name: "protein stability index"
  Endpoint Result: 4.4
- Mutant Code: "Q5P"
  Property Name: "protein stability index"
  Endpoint Result: 2.96
- Mutant Code: "T24S"
  Property Name: "protein stability index"
  Endpoint Result: 3.85
- Mutant Code: "S8G"
  Property Name: "protein stability index"
  Endpoint Result: 3.25
- Mutant Code: "S3Y"
  Property Name: "protein stability index"
  Endpoint Result: 2.81
- Mutant Code: "D13R"
  Property Name: "protein stability index"
  Endpoint Result: 2.36
- Mutant Code: "W19Y"
  Property Name: "protein stability index"
  Endpoint Result: 4.08
- Mutant Code: "S3W"
  Property Name: "protein stability index"
  Endpoint Result: 3.04
- Mutant Code: "D13I"
  Property Name: "protein stability index"
  Endpoint Result: 2.35
- Mutant Code: "S8H"
  Property Name: "protein stability index"
  Endpoint Result: 2.57
- Mutant Code: "D13E"
  Property Name: "protein stability index"
  Endpoint Result: 3.33
- Mutant Code: "T2P"
  Property Name: "protein stability index"
  Endpoint Result: 3.93
- Mutant Code: "W19H"
  Property Name: "protein stability index"
  Endpoint Result: 4.09
